- Target System: human ether-à-go-go-related gene (hERG) potassium channel (human, UniProt Q12809);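 further: peak tail current of the secondary pulse compared with the same well before compound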
- Sequence (Q12809 whole entry, looked up): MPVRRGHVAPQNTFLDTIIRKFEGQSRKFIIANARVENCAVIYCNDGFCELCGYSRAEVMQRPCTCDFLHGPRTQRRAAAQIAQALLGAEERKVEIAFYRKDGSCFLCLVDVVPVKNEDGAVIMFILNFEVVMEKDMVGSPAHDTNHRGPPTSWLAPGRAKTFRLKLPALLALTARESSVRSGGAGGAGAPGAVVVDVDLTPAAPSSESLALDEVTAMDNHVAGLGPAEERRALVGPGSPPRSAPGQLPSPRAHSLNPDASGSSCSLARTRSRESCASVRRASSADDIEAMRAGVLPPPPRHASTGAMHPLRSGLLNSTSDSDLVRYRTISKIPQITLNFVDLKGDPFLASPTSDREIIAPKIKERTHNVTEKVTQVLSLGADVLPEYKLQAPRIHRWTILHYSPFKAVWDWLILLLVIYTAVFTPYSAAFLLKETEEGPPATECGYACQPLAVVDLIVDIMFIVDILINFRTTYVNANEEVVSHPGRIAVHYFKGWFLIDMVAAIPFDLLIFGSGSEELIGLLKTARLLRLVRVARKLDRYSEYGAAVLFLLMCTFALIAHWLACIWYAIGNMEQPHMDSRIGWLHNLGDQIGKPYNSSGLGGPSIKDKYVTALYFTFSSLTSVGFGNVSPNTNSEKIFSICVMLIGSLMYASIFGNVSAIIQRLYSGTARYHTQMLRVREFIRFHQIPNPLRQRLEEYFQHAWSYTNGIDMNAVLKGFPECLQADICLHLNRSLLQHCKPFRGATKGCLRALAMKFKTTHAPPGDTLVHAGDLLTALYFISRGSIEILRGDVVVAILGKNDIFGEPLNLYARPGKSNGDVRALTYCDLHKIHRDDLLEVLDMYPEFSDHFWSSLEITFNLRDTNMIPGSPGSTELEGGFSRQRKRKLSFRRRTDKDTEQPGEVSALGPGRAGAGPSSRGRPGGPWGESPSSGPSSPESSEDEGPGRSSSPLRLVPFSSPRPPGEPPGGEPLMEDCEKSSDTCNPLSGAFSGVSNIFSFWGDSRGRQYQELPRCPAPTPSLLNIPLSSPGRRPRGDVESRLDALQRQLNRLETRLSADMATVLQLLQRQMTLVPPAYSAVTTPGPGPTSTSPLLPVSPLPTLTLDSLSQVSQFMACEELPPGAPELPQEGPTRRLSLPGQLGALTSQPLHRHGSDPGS
- Assay Procedure: primary screen, population patch clamp on CHO cells stably expressing hERG; higher = less effect of the substance
Out of some 310,000 compounds screened, about 14,000 (4.5%) showed an effect of 50% or more. Effects have a minus sign here. This excerpt belongs to a sample that is enriched for strong results.
Measured hERG current change (%, negative = inhibition) at 10uM accompanies every entry in the list below.
Respond numerically; units are % and should not be typed.

For the compound shown here, `CCN1CCc2c(C#N)c(N3CCCCC3)nc(NCc3ccccc3)c2C1` , give the reported hERG current change (%, negative = inhibition) at 10uM.
-39.8

Value lookup for hERG current change (%, negative = inhibition) at 10uM; key = `CCN1CCc2c(C#N)c(NCc3ccccc3)nc(N(CC)CC)c2C1`
-68.5

For COc1ccc2oc(=O)c(C(=O)NCC3CCCO3)cc2c1 (centres unmarked) , what is its reported hERG current change (%, negative = inhibition) at 10uM?
3.67

Consider the compound shown here: COc1ccc(CCNC(=O)C(=O)NCC2CCCO2)cc1 (centres unmarked) What is its recorded hERG current change (%, negative = inhibition) at 10uM?
-0.535
